The entries below come with measured Trimeric HA Binding: RLU values attached.
Target: recombinant soluble homotrimeric HA of A/South Carolina/1/18 (H1N1) (Influenza A virus A/South Carolina/1/18 (H1N1))
Assay: trimeric HA microarray, transfection supernatant set 5
Details: remark: other sources report otherwise
assay-metric: Trimeric HA Binding: RLU (RLU)

| binder | measured |
| --- | --- |
| TCN-538 (3206_O17) (antibody, V domains shown) VH: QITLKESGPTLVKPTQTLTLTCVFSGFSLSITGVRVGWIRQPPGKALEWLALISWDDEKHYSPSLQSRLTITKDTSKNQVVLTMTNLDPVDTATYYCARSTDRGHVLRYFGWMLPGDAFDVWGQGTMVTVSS VL: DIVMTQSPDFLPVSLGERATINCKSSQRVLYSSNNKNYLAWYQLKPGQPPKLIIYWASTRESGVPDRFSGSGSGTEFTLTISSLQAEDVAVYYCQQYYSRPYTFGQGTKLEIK | 8430 |
| TCN-543 (5081_G23) (antibody, V domains shown) VH: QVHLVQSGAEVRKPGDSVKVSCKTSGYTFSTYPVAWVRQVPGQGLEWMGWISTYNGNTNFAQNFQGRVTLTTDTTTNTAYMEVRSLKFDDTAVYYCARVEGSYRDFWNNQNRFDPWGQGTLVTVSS VL: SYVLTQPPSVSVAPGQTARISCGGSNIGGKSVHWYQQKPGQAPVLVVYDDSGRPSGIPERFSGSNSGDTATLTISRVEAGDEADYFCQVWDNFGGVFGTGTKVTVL | 28300 |
| TCN-540 (5060_F05) (antibody, V domains shown) VH: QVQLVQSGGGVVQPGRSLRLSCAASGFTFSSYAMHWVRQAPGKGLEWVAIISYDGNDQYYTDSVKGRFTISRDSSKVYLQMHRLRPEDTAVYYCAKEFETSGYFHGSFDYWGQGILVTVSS VL: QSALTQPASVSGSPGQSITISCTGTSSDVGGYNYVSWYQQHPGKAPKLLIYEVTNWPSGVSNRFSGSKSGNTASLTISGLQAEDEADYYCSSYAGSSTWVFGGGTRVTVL | 1360 |
| TCN-542 (5079_A16) (antibody, V domains shown) VH: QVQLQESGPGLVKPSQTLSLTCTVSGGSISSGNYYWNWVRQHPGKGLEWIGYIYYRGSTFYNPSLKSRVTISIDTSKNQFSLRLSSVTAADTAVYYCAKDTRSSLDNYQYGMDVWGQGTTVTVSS VL: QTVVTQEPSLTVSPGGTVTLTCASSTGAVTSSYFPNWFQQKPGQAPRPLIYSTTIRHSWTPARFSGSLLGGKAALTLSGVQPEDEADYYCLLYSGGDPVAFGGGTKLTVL | 1120 |
| TCN-546 (5089_L08) (antibody, V domains shown) VH: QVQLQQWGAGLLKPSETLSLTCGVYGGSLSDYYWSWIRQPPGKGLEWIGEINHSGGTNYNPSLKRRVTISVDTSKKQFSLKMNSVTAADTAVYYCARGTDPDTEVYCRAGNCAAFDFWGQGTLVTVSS VL: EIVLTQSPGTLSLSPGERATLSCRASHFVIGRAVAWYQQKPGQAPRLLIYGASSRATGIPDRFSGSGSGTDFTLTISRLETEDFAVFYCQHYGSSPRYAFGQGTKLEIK | 955 |
| TCN-537 (3194_D21) (antibody, V domains shown) VH: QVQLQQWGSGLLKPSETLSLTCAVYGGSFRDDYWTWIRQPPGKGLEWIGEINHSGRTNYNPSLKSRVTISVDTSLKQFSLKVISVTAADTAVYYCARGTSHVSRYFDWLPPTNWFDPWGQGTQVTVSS VL: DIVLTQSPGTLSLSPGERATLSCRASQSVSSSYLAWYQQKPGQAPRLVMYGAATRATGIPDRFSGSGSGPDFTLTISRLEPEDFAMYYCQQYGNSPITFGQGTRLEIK | 46800 |
